- protocol.details: Inhibition of beta-hematin formation assessed as reduction in acetate buffer-initiated hemozoin formation after 18 hrs by spectrophotometric method relative to control
- Design: concentration or dose not given beside the values
- test.settings: concentration not given here
measure.name: inhibition (%)
Give the number; % is assumed, so skip it.

CC(C)c1ccccc1C1CC(c2ccc(O)cc2)=NN1C(=O)c1cccnc1 (configuration not stated) :: 57
Cc1cc(C)c(C2CC(c3ccc(O)cc3)=NN2C(=O)c2cccnc2)c(C)c1 (configuration not stated) :: 67
CCN(CC)CCCC(C)Nc1ccnc2cc(Cl)ccc12 (configuration not stated) :: 87
CC(C)c1ccc(C2CC(c3ccc(O)cc3)=NN2C(=O)c2cccnc2)cc1 (configuration not stated) :: 48
CC(C)Oc1ccc(C2CC(c3ccc(O)cc3)=NN2C(=O)c2cccnc2)cc1 (configuration not stated) :: 78
COc1ccc(C2CC(c3ccc(O)cc3)=NN2C(=O)c2cccnc2)cc1 (configuration not stated) :: 54

Q: Read off the recorded inhibition for COc1ccc(OC)c(C2CC(c3ccc(O)cc3)=NN2C(=O)c2cccnc2)c1 (configuration not stated)
A: 71

Q: Read off the recorded inhibition for COc1ccc(C2CC(c3ccc(O)cc3)=NN2C(=O)c2cccnc2)cc1OC (configuration not stated)
A: 89

Q: Read off the recorded inhibition for O=C(c1cccnc1)N1N=C(c2ccc(O)cc2)CC1c1ccc(Br)cc1 (configuration not stated)
A: 76

----------
- Test system: Pseudomonas aeruginosa
- protocol.details: Antibacterial activity against Pseudomonas aeruginosa MTCC 741 after 24 hrs by broth microdilution method
- Format: functional
- test.settings: MTCC 741, 24 h
Some compounds, each annotated with its measured MIC.
Give the number; µg/mL is assumed, so skip it.

# annotated cases, reported MIC shown
CCc1ccccc1C1CC(c2ccc(O)cc2)=NN1C(=O)c1cccnc1 (configuration not stated) :: 25
O=C(c1cccnc1)N1N=C(c2ccc(O)cc2)CC1c1ccc(OCc2ccccc2)cc1 (configuration not stated) :: 12.5
COc1ccc(C2CC(c3ccc(O)cc3)=NN2C(=O)c2cccnc2)cc1C (configuration not stated) :: 6.5
O=C(c1cccnc1)N1N=C(c2ccc(O)cc2)CC1c1ccc([N+](=O)[O-])cc1 (configuration not stated) :: 25
Cc1cc(C)c(C2CC(c3ccc(O)cc3)=NN2C(=O)c2cccnc2)c(C)c1 (configuration not stated) :: 6.5
COc1ccc(C2CC(c3ccc(O)cc3)=NN2C(=O)c2cccnc2)cc1OC (configuration not stated) :: 25

Q: Read off the recorded MIC for COc1ccc(OC)c(C2CC(c3ccc(O)cc3)=NN2C(=O)c2cccnc2)c1 (configuration not stated)
A: 12.5

----------
Some molecules, each annotated with its measured inhibition.
- protocol.details: Inhibition of beta-hematin formation assessed as reduction in acetate buffer-initiated hemozoin formation after 18 hrs by spectrophotometric method relative to control
- Parameters: concentration or dose not given beside the values
- test.settings: concentration not given here

# annotated cases, reported inhibition shown
O=C(c1cccnc1)N1N=C(c2ccc(O)cc2)CC1c1ccc([N+](=O)[O-])cc1 (stereo not drawn) :: < 5%
O=C(c1cccnc1)N1N=C(c2ccc(O)cc2)CC1c1ccc(F)cc1 (stereo not drawn) :: < 5%

Now examine the next entry.
Q: Read off the recorded inhibition for O=C(c1cccnc1)N1N=C(c2ccc(O)cc2)CC1c1ccc(OCc2ccccc2)cc1 (stereo not drawn)
A: < 5%

The reported numbers originate from ChEMBL document CHEMBL3992561.
